Target: rh-prostasin (Homo sapiens, UniProt Q16651)
Sequence (Q16651 33-343): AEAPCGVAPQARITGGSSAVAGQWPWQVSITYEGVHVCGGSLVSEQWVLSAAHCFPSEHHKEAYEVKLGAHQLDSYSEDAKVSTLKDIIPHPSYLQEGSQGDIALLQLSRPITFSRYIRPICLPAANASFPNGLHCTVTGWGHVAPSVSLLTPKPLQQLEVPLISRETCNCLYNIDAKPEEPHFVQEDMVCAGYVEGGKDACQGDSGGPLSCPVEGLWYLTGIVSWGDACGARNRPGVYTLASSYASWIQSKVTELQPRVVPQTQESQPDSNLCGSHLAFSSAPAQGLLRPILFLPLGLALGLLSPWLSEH
Test: Biochemical assay, recombinant human prostasin, fluorescent peptide substrate
Structures can show the parent of a compound that is named as a salt.
REPORTED_PROPERTY: Ki (nM)
Answers are plain numbers, in nM.

input: # Ki lookup, item CN(C)C(=O)COC(=O)Cc1ccc(OC(=O)c2ccc(NC(=N)N)cc2)cc1 [Camostat mesylate]
output: 429
